Reference for the values: patent US20260356856A1

Target: KRas-mediated phosphorylation of ERK in A549 cells (Homo sapiens, UniProt P01116, G12S)
Construct: pERK HTRF read-out
Sequence (P01116 1-188 isoform P01116-2 G12S): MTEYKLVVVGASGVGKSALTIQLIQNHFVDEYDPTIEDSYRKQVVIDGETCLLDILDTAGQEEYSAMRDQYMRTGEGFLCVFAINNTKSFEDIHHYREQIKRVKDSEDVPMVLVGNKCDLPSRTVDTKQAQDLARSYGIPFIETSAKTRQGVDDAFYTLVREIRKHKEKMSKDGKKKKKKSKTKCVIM
Experiment: Inhibition of KRas-mediated phosphorylation of ERK (HTRF), A549 cells
Format: cell-based
Settings: HTRF pERK, 3 h incubation
Labelling field: enter 1 if recorded IC50 is less than 300 nM. Enter -1 if it equals or exceeds that cut-off.

Consider CCc1c(F)ccc2cc(O)cc(-c3ncc4c(N5CCC(OC)(C(=O)n6ccc(C)n6)CC5)nc(OC[C@@]56CCCN5C[C@H](F)C6)nc4c3F)c12 . Does its IC50 lie strictly below 300 nM?
-1

Check if IC50 falls below 300 nM for Cc1ccn(C(=O)C2CCCN(c3nc(OC[C@@]45CCCN4C[C@H](F)C5)nc4c(F)c(-c5ccc(F)c6sc(N)c(C#N)c56)c(Cl)cc34)CCC2)n1 .
-1

Given N#Cc1c(N)sc2c(F)ccc(-c3c(Cl)cc4c(N5CCC(C(=O)N6CCCC6)CC5)nc(OC[C@@]56CCCN5C[C@H](F)C6)nc4c3F)c12 , is recorded IC50 strictly lower than 300 nM?
1

Check if IC50 falls below 300 nM for CCc1c(F)ccc2cc(O)cc(-c3ncc4c(N5CCC(C(=O)N(C)C(C)=O)C5)nc(OC[C@@]56CCCN5C[C@H](F)C6)nc4c3F)c12 (stereo partly drawn) .
-1

hey, is IC50 for CCc1c(F)ccc2cc(O)cc(N3CCc4c(nc(OC[C@@]56CCCN5C[C@H](F)C6)nc4N(C)CCC(=O)n4ccc(C)n4)C3)c12 lower than 300 nM or not?
-1

Lab note: IC50 threshold 300 nM. Does this compound come in strictly under it? CCc1c(F)ccc2cc(O)cc(-c3ncc4c(N(C)CCCS(=O)(=O)n5ccnc5)nc(OC[C@@]56CCCN5C[C@H](F)C6)nc4c3F)c12
-1

----------
Target: KRas G12C (Homo sapiens, UniProt P01116, G12C)
Construct: Biotinylated KRas (corresponding to amino acids 1-169, produced at Accelegan Inc.); biotin (biotinylated); purchased Accelegan Inc
Sequence (P01116 1-169 isoform P01116-2 G12C): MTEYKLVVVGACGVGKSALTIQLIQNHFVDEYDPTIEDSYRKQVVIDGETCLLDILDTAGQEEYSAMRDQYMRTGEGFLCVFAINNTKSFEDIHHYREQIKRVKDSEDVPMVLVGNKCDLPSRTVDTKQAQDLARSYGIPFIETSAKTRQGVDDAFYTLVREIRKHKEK
Test: KRas binding assay, TR-FRET displacement of Cy5 labelled tracer
Conditions: 60-minute incubation at room temperature, 1% DMSO, pH 7.5
Binary label based on IC50 with cut-off 600 nM: below gives Criterion met, not below gives Criterion not met.

For this compound, is IC50 lower than 600 nM? CCc1c(F)ccc2cc(O)cc(-c3ncc4c(N5CC6CC5CC6C(=O)n5ccc(C)n5)nc(OC[C@@]56CCCN5C[C@H](F)C6)nc4c3F)c12 (stereo partly drawn)
Criterion met

Report whether reported IC50 is lower than 600 nM (strictly) for O=C(Oc1ccc(F)cc1)[C@@H]1[C@@H]2C[C@H]1CN(c1nc(OCC34CCCN3CCC4)nc3c(F)c(-c4cccc5cccc(F)c45)ncc13)C2
Criterion not met

Criterion: IC50 strictly below 600 nM. Is it met by Cc1ccn(C(=O)CCNc2cc(-c3noc4c3CCC[C@@]43CCCc4sc(N)c(C#N)c43)nc(N3CCNC[C@@H]3C)n2)n1 ?
Criterion met

I wonder whether CCc1c(F)ccc2cc(O)cc(-c3ncc4c(N5CCN(C(=O)n6ccnc6)CC5)nc(OC[C@@]56CCCN5C[C@H](F)C6)nc4c3F)c12 has IC50 below 600 nM. Can you tell?
Criterion met

Item C#Cc1c(F)ccc2cc(O)cc(-c3ncc4c(N5CCC(C(=O)n6ccc(C)n6)CC5)nc(OC[C@@]56CCCN5C[C@H](F)C6)nc4c3F)c12 : IC50 beneath 600 nM, strictly?
Criterion met
